Where these numbers come from: the supplement of paper PMC9170038

Some sequences, each annotated with its measured apparent KD of MS2 coat protein.
# Test system: MS2 coat protein
# methodNotes: apparent KD of MS2 coat protein; designed switch direction (-1 OFF switch, 1 ON switch): -1; higher = weaker reporter binding
# experimentalParameters: input ligand: none
Field: numeric (nM). Do not append units.

Before answering, review these 4 worked examples.
CAGCUGAAAGUCAGGAUAUCUAGAGCUUCGGCUCUAGAGAAGGGACAUGAGGAUCACCCAUGUGAUUACAGCUG [BmEx4/6-A1] (Eterna round: R97, puzzle: Brourd's mod of Exclusion 4); 60.6
GCUGGACGAGGAUAUAUAUGACGUGCUUCGGCACGAAGAUCACAUGAGGAUCACCCAUGUAGAAGGUGUCCAGC [E2/8-B2] (Eterna round: R97, puzzle: Exclusion 2); 54.1
GCGCGAAGCAAGGAUAUCCCAGGGAGCUCCCUGGGAGAAGGUGCCACAUGAGGAUCACCCAUGUGGUGAUCCUG [eternacac ex6r4 sub16] (Eterna round: R97, puzzle: Exclusion 6); 17.7
UACAUGAGGAUCACCCAUGUUUUGUCGUGUUUGGUACCCGUUUAGGAUAUCGUGUUAUUGGACCGCGAGAAGGAGAGUAUCAUU [Excl-NG3-LRO06] (Eterna round: R96, puzzle: Exclusion NG 3); 39.9

--- query ---
Report apparent KD of MS2 coat protein, nothing else, for this sequence: UGUUGUCGCGCAGGAUAUGUAUGAGGAUCACCCAUUAAUAAAUUUUAACCACGAGGAUCACCCGUGUAGAAGGGCGGGACAACA [pwkr exNG2 2xF5 1xFMN.15] (Eterna round: R96, puzzle: Exclusion NG 2)
29.5

* * *

# System: K4 kissing-loop RNA reporter;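 also: bound reporter read as fluorescence of individual clusters on recovered sequencing chips by microscopy, with normalized cluster intensities fitted with a binding model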
# methodNotes: apparent KD of K4 kissing-loop reporter; higher = weaker reporter binding
# experimentalParameters: Eterna round: R107; input ligand: arginine 13.2 mM
Some sequences, each annotated with its measured apparent KD of K4 kissing-loop reporter.
Field: numeric (µM). Do not append units.

GCAGUCAAUCGACCACGAAAGUGGAUGGAUACCAGCCCGAAACCGGGCCCUUGGCAGCCAGUGAUGUUGGAAGACUGCUUUAAAA [#SwitchBubble 14 #K4Late]; 0.372

--- query ---
Report apparent KD of K4 kissing-loop reporter, nothing else, for this sequence: AAUUUAGUGACGGCCGCCACUAGGGUGAUUUUUUUGUUUGAGUGAUGUUUUGAUGUUUGAUUUUGUAGGACCGGGUUAGGUGAUG [cccmullin]
0.31

* * *

# Tested on: MS2 coat protein
# methodNotes: apparent KD of MS2 coat protein, switch ON state; designed switch direction (-1 OFF switch, 1 ON switch): 1; higher = weaker reporter binding
# experimentalParameters: FMN input: 0 or 200 uM; Eterna round: R93 (includes R88 designs)
experimentalEndpoint: apparent KD of MS2 coat protein
A bare number is not enough; add the unit after it.

Before answering, review these 4 worked examples.
AAAGACAUAGUGCAGGAUAUGGUAAUAGUCACAUGAGGAUCACCCAUGUUCUUUUAUAAGAACGAUCAGAAGGGCGGUAAAAAAA [SameState2 Malc#13]; 359 nM
ACGAGGAAGAGAGAGGAUAUCCAAAGGAAAACAUGAGGAUCACCCAUGUAAAAGGUAGGAAAUUGGGAGAAGGCUCAAGAGAGAG [salish99-ss2-069]; 32.4 nM
GAAAAACAUGAGGAUCACCCAUGUAGAAAUAUGGGAGGAUAUACGAAGUCGAAAGUCAAAGUAGAAGGCCUAAAAG [Garnet 28]; 31.3 nM
AGGAAACAUGAGGAUCACCCAUGUAAAAAAUAGGGAGGAUAUACUAGAAGAAACAAAAUAGUAGAAGGCUCAAAAA [75%, Ex sub1, 25]; 12.9 nM

Report apparent KD of MS2 coat protein, nothing else, for this sequence: UACAGACAUGAGGAUCACCCAUGUAGAAUUAUGGGAGGAUAUACAAAGACGAGAGUCAGAGUAGAAGGCCUAGGAC [salish99-ss1-166]
27.3 nM

Report apparent KD of MS2 coat protein, nothing else, for this sequence: AAGAAUUAAACGCAGGAUAUGUACCCACGUACAUGAGGAUCACCCAUGUGCCUAUAAGGGUCGAGGCAGAAGGGCGAUAUAGAAA [Reteriusge]
15.8 nM

Report apparent KD of MS2 coat protein, nothing else, for this sequence: CGAAAGGAGAGAGAGGAUAUCCAAAGGAAAACAUGAGGAUCACCCAUGUAGAAGGUAGGAGAUUGGGAGAAGGCUCAAGAGAGAA [salish99-ss2-146]
19.1 nM

Report apparent KD of MS2 coat protein, nothing else, for this sequence: AGGAAACAUGAGGAUCACCCAUGUAAGAUAAACUUAGGAUAUGCGAAAAGAAACAAAGAAGCAGAAGGAGGGAGAA [75%, Ex5 sub 1, 2]
16.5 nM

Report apparent KD of MS2 coat protein, nothing else, for this sequence: UGGAGACAUGAGGAUCACCCAUGUGAGAAGAGGCGAGGAUAUCGAAAGAAAGAAGAGAAACGAGAAGGCGCGAGUC [salish99-SS1-046]
28.3 nM

Report apparent KD of MS2 coat protein, nothing else, for this sequence: AUGGUCAAGUGUGAGGAUAUCCAGGCUCCCACAUGAGGAUCACCCAUGUUUUAAAGAGCGUAAAGGGAGAAGGUACGAACGCCAC [Isorvere]
15.4 nM

Report apparent KD of MS2 coat protein, nothing else, for this sequence: AAUAAACAUGAGGAUCACCCAUGUAAAUGGGCGAUAGGAUAUGCGAAAAUAAAGAAAGAAGCAGAAGGAUCGAAGA [Ex5 sub 3]
224 nM

Report apparent KD of MS2 coat protein, nothing else, for this sequence: UCGUCCUCGUGCUAGGAUAUCCAUCGUAAAACAUGAGGAUCACCCAUGUAGAAAUGCGCCGACGAGGAGAAGGAGCGAUGUGGAU [Lazabima]
14.5 nM

Report apparent KD of MS2 coat protein, nothing else, for this sequence: AAAAAACAUGAGGAUCACCCAUGUCAAAAGACGUGAGGAUAUGUACAGACUUCGGUCUGUACAGAAGGCAUGAAAA [SS1 - 1056]
32 nM

Report apparent KD of MS2 coat protein, nothing else, for this sequence: AAUAAACAUGAGGAUCACCCAUGUAAAUGGGUACAAGGAUAUGCGAAAAGAAACAAAGAAGCAGAAGGUGUAAAGA [Ex5 sub 2]
347 nM

Report apparent KD of MS2 coat protein, nothing else, for this sequence: AAUAUAUUAAGUGAGGAUAUCAAAGAAAAAACAUGAGGAUCACCCAUGUGGGAAACCUGGUCGGGUGAGAAGGCACUUAAUAUAU [Samwise Clockwise 28 - Jieux - Same State 2]
31.3 nM

Report apparent KD of MS2 coat protein, nothing else, for this sequence: AACAUACAUGAGGAUCACCCAUGUUUAUAAAAACAAGGAUAUAUAAGAACAAACAAACAAAUAGAAGGUGUAAAAA [Default title]
23.4 nM

Report apparent KD of MS2 coat protein, nothing else, for this sequence: AAAAGACAUGAGGAUCACCCAUGUAAAAACGUAGGAGGAUAUGUCGUGAAAAAAGACUUGACAGAAGGCCUGUGUC [SS1 - 35]
25.9 nM

Report apparent KD of MS2 coat protein, nothing else, for this sequence: AAUAAACAUGAGGAUCACCCAUGUAGAAACAUGGGAGGAUAUACAAAGACGAAAGUCAAAGUAGAAGGCCUAAAAA [Mat - Same State 1 - Mod - D168]
150 nM

Report apparent KD of MS2 coat protein, nothing else, for this sequence: AUUUUACAUGAGGAUCACCCAUGUUUUGGUGGAUCAGGAUAUAGAUUGAAUGAGUUUUAGCUAGAAGGGAUAUAUA [JR_SS001_Sub506]
111 nM

Report apparent KD of MS2 coat protein, nothing else, for this sequence: AGGAAACAUGAGGAUCACCCAUGUAAAAAUAUGGGAGGAUAUACGAAGACGAAAGUAAAAGUAGAAGGCCUAAAAG [Garnet 15]
31.8 nM

Report apparent KD of MS2 coat protein, nothing else, for this sequence: AUAAGACAUGAGGAUCACCCAUGUAUAAGAGCAUGAGGAUAUAUGAAAAGUAAUAGGAGAAUAGAAGGCAUAGUUG [JR_SS001_Sub1220]
80.7 nM
